Measured activation values are reported for all entries that follow.
- Target: Trace amine-associated receptor 1 (Homo sapiens)
- Measurement Protocol: activators of TAAR1 calcium signal, triplicate retest – Fluo-8 calcium fluorescence, CHO RD-HGA16 cells, confirmation (AID 651783);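 further: promiscuous G-alpha-16 overexpression reroutes TAAR1 signalling from cAMP to calcium; peak fluorescence divided by basal pre-compound fluorescence per well; 0% = DMSO wells and 100% = phenethylamine at EC100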
- Run Conditions: CHO RD-HGA16 TAAR1, Fluo-8 calcium fluorescence; at 3 µM; stronger effect = higher value; scaled: DMSO 0%, maximal phenethylamine 100%
Out of some 2,400 compounds screened, about 2,000 (83%) were called active. So high a share suggests a set chosen from earlier hits. A selection follows.

Sample Smiles: Cn1c(=O)c(=O)n(C)c2cc(S(=O)(=O)NCCc3ccccc3)ccc21
activation (%): 98.3

Sample Smiles: CCCc1ccc(OCC(=O)NNC(=S)NC(=O)c2ccco2)cc1
activation (%): 93.8

Sample Smiles: NC[C@H](Cc1ccccc1)NCCc1cc(C(F)(F)F)cc(C(F)(F)F)c1
activation (%): 55.9

Sample Smiles: CN(C(=O)CN(CCO)CC(=O)N(C)C(C)(C)Cc1ccccc1)C(C)(C)Cc1ccccc1
activation (%): 101

Sample Smiles: C#CCOc1ccc(/C=C2/C(=O)NN(c3ccccc3)C2=O)cc1OC
activation (%): 88
